Cited source: patent US20190092852A1

Biological target: T1, biotinylated human IL-33 (human) (UniProt O95760)
T1 sequence (biotin-labeled with EZ-LINK NHS-PEG4-Biotin, looked up): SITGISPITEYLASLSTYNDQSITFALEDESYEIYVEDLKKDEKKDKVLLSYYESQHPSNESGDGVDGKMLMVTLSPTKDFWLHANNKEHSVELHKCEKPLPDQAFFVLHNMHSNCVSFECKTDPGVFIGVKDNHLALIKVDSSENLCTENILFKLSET
Test: competitive ELISA, biotin-huIL-33 to coated hST2-Fc
pIC50: −log10 of the molar value.
Property Measured: pIC50

binder="H4H9666P (antibody, from another filing, IgG4, V domains shown) VH: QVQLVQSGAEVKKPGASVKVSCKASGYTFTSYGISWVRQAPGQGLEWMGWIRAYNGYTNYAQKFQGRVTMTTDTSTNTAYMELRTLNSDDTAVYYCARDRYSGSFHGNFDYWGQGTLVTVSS VL: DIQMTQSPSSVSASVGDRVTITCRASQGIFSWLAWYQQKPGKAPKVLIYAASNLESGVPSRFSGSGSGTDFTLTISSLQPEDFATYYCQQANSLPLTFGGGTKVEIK" property_measured=pIC50 result_number=9.68
binder="H4H9670P (antibody, from another filing, IgG4, V domains shown) VH: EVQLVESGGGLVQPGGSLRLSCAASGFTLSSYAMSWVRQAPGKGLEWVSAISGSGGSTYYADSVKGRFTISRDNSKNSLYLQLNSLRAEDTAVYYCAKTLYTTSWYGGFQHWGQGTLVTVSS VL: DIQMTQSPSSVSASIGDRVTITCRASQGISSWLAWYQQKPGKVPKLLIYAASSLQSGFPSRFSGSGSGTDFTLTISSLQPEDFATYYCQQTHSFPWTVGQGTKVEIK" property_measured=pIC50 result_number=9.38
binder="H4H9675P (antibody, from another filing, IgG4, V domains shown) VH: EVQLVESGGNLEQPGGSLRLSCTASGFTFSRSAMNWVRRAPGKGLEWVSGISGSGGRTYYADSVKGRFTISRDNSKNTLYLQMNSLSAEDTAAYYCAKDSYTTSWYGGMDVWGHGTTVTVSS VL: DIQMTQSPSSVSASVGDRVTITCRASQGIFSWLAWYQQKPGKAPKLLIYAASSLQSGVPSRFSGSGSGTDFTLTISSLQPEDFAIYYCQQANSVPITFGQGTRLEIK" property_measured=pIC50 result_number=10.20
binder="H4H9663P (antibody, from another filing, IgG4, V domains shown) VH: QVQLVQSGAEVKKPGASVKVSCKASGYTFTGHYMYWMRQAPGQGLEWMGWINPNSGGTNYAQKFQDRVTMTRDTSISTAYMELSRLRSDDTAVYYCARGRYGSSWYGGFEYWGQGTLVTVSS VL: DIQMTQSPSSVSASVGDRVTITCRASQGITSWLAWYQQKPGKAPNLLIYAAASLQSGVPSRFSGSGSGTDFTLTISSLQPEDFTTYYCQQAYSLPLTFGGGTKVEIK" property_measured=pIC50 result_number=9.36
binder="H4H9667P (antibody, from another filing, IgG4, V domains shown) VH: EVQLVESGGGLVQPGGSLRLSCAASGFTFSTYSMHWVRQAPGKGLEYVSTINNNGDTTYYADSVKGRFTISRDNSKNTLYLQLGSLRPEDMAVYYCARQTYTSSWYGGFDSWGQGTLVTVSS VL: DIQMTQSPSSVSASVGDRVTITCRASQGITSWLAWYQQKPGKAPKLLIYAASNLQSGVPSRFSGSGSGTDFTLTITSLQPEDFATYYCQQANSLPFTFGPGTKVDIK" property_measured=pIC50 result_number=9.39
